# Tested on: Echinochloa crus-galli
# assay notes: Field transplant rice test, applied 9 DAT, EC
# Format: in vivo
# measurement parameters: Echinochloa crus-galli, 216 h, 0.375 Kg/Ha, 3 WAT, read-out: Percent Inhibition, EC
reported endpoint: inhibition at 375 g/ha (%)
Record the value in %, omitting the unit from your answer.

Examples with answers:
CCCCOCN(C(=O)CCl)c1c(C)cccc1C(C)(C)C :: 82
CCCOCCN(C(=O)CCl)c1c(CC)cccc1CC :: 62
CCCCOc1cccc(CC)c1N(C)C(=O)CCl :: 90
CCCCOCCN(C(=O)CCl)c1c(CC)cccc1CC :: 57

For reference, reported inhibition at 375 g/ha for "CCCCOCN(C(=O)CCl)c1c(CC)cccc1CC" stands at 23

###

# System: Rice
# assay notes: Field transplant rice test, applied 9 DAT, rice injury
# Format: in vivo
# measurement parameters: Oryza sativa, 216 h, 3.0 Kg/Ha, 7 WAT, read-out: Percent Inhibition, Rice
# Experimental: In further comparative tests, a preferred compound of this invention (Example 1) was tested in the field with prior art Compounds A-D. These tests were conducted under conditions reflecting herbicide application times generally favorable to all herbicides in the test. The timing of application of herbicides to transplant rice is very important, whether, as in some instances, prior to transplanting the rice; in other instances, at the time of transplanting or else after transplanting. […]
Listing of entries alongside the reported inhibition at 3000 g/ha.
Record the value in %, omitting the unit from your answer.

CCCOCCN(C(=O)CCl)c1c(CC)cccc1CC :: 8
CCCCOCN(C(=O)CCl)c1c(C)cccc1C(C)(C)C :: 8
CCCCOc1cccc(CC)c1N(C)C(=O)CCl :: 10
CCCCOCCN(C(=O)CCl)c1c(CC)cccc1CC :: 2

For reference, reported inhibition at 3000 g/ha for "CCCCOCN(C(=O)CCl)c1c(CC)cccc1CC" stands at 5

###

# System: Cyperus serotinus
# assay notes: Field transplant rice test, applied 9 DAT, CS
# Format: in vivo
# measurement parameters: Cyperus serotinus, 216 h, 3.0 Kg/Ha, 5 WAT, read-out: Percent Inhibition, CS
reported endpoint: inhibition at 3000 g/ha

CCCOCCN(C(=O)CCl)c1c(CC)cccc1CC [Compound D] :: 100%
CCCCOCN(C(=O)CCl)c1c(CC)cccc1CC [Compound A] :: 100%
CCCCOCCN(C(=O)CCl)c1c(CC)cccc1CC [Compound B] :: 72%
CCCCOCN(C(=O)CCl)c1c(C)cccc1C(C)(C)C [Compound C] :: 100%

Kindly review the next molecule as well.
For reference, reported inhibition at 3000 g/ha for CCCCOc1cccc(CC)c1N(C)C(=O)CCl [Example 1] stands at 100%

###

# Test system: Cyperus serotinus
# assay notes: Field transplant rice test, applied 0 DAT, CS
# Format: in vivo
# measurement parameters: 0 h, 0.75 Kg/Ha, 6 WAT, read-out: Percent Inhibition, CS
Decision: inhibition at 750 g/ha >= 70% yields MET, all other cases yield NOT MET.

CCCCOCCN(C(=O)CCl)c1c(CC)cccc1CC :: NOT MET
CCCCOc1cccc(CC)c1N(C)C(=O)CCl :: NOT MET
CCCCOCN(C(=O)CCl)c1c(CC)cccc1CC :: MET

# ---- query compound ----
**Query** Entry "CCCCOCN(C(=O)CCl)c1c(C)cccc1C(C)(C)C" : is its inhibition at 750 g/ha no less than 70%?
**Result** MET
